system: SK-MEL-5; test: NCI tumour cell line growth inhibition, 48 h
Where a name gives a salt, the structure may show the parent alone. Activity calls are given as the source filed them. Rule as the data show it: active = GI50 up to about 1.1 µM and inactive = higher.
Outcome codes: t for active, f for inactive

- MOLECULE: "CCOC(OCC)C(CC)[Se]c1ccccc1[N+](=O)[O-] (stereo not drawn)"
  QUALITATIVE LABEL: "f"
- MOLECULE: "c1ccc2cc(CNCCOCCOCCNCc3ccc4ccccc4c3)ccc2c1"
  QUALITATIVE LABEL: "f"
- MOLECULE: "CC(C)NC1CCCCC2c3ccccc3C12O (stereo not drawn)"
  QUALITATIVE LABEL: "f"
- MOLECULE: "COc1cc(C2S/C(=C/c3ccccc3)C(=O)N2c2ccccn2)cc(OC)c1OC (stereo not drawn)"
  QUALITATIVE LABEL: "f"
- MOLECULE: "CCOP(=O)(Nc1ccc(-c2ccc(N)cc2)cc1)OCC"
  QUALITATIVE LABEL: "f"
- MOLECULE: "O=C1CCC(c2nc3ccccc3o2)C(=O)N1 (stereo not drawn)"
  QUALITATIVE LABEL: "f"
- MOLECULE: "O=C1N[C@@H]2O[C@H](CNC(=O)c3cc(Br)c[nH]3)C[C@]2(O)N1.O=C1N[C@H]2O[C@H](CNC(=O)c3cc(Br)c[nH]3)C[C@@]2(O)N1"
  QUALITATIVE LABEL: "f"
- MOLECULE: "NC(CCCNCc1ccccc1)C(=O)O (stereo not drawn)"
  QUALITATIVE LABEL: "f"
- MOLECULE: "CC(C)(C)CC(C)(C)c1cc2c(O)c(c1)Cc1cc(C(C)(C)CC(C)(C)C)cc(c1O)Cc1cc(C(C)(C)CC(C)(C)C)cc(c1O)Cc1cc(C(C)(C)CC(C)(C)C)cc(c1O)Cc1cc(C(C)(C)CC(C)(C)C)cc(c1O)Cc1cc(C(C)(C)CC(C)(C)C)cc(c1O)C2"
  QUALITATIVE LABEL: "f"
- MOLECULE: "C=CCOC(C)n1c(C)c(Br)c(=O)[nH]c1=O (stereo not drawn)"
  QUALITATIVE LABEL: "f"
- MOLECULE: "C#CCOC(=O)C(N)CCSC (stereo not drawn)"
  QUALITATIVE LABEL: "f"
- MOLECULE: "O=C1[C@H]2ON(c3ccccc3)C(c3cccc([N+](=O)[O-])c3)[C@H]2C(=O)N1c1ccc(Cc2ccc(N3C(=O)[C@@H]4ON(c5ccccc5)C(c5cccc([N+](=O)[O-])c5)[C@@H]4C3=O)cc2)cc1 (stereo partly drawn)"
  QUALITATIVE LABEL: "f"
- MOLECULE: "CNCCC=C1c2ccccc2CCc2ccccc21 [NORTRIPTYLINE HYDROCHLORIDE]"
  QUALITATIVE LABEL: "f"
- MOLECULE: "C[C@]12CC[C@H](O)CC1=CC[C@@H]1C2CC[C@]2(C)Nc3c(cnn3-c3ccccc3)CC12 (stereo partly drawn)"
  QUALITATIVE LABEL: "f"
- MOLECULE: "CC(C)(C)N(Cc1ccc2c(c1)OCO2)C(=O)/C=C\\Sc1ccccc1"
  QUALITATIVE LABEL: "f"
- MOLECULE: "COc1cc2c(/C=C3/C(=O)Nc4cccc(Cl)c43)c(Cl)[nH]c2cc1C"
  QUALITATIVE LABEL: "f"
- MOLECULE: "COC(=O)C12CCC(C(=O)OC)(Cc3c(c4ccccc4n3S(=O)(=O)c3ccccc3)C1)C2=O (stereo not drawn)"
  QUALITATIVE LABEL: "f"
- MOLECULE: "COc1ccc(Oc2cccc(C3C4C(=O)N(c5ccc(C)c(Cl)c5)C(=O)C4ON3C(C(N)=O)c3ccccc3)c2)cc1 (stereo not drawn)"
  QUALITATIVE LABEL: "f"
- MOLECULE: "O=C(N/N=C(\\c1ccccc1)c1ccccn1)NC1CCCCC1"
  QUALITATIVE LABEL: "f"
- MOLECULE: "C[C@]12CC[C@H]3[C@@H](CC[C@]4(O)C[C@@H](O)CC[C@]34CO)[C@@]1(O)CC[C@@H]2C1=CC(=O)OC1 [STROPHANTHIDOL]"
  QUALITATIVE LABEL: "t"
- MOLECULE: "O=C1c2ccccc2C(=O)C1C(c1ccc(F)cc1)C1C(=O)c2ccccc2C1=O"
  QUALITATIVE LABEL: "f"
- MOLECULE: "CC(=O)O/C=C1/C[C@H]2[C@@H]3CCC4CC(C(C)=O)CC[C@]4(C)[C@H]3CC[C@]2(C)C1=O (stereo partly drawn)"
  QUALITATIVE LABEL: "f"
- MOLECULE: "CS(=O)(=O)Nc1ccc2c(c1)oc(=O)c1ccccc12"
  QUALITATIVE LABEL: "f"
- MOLECULE: "O=C(Nc1ccccc1)O/N=C(/CBr)c1ccccc1"
  QUALITATIVE LABEL: "f"
- MOLECULE: "O=C(N[C@H]1c2ccsc2/C(=N/O)[C@H]1O)C(F)(F)F"
  QUALITATIVE LABEL: "f"
- MOLECULE: "C1=C2C3=[N+](CCCCC3)CC2Cc2ccsc21 (stereo not drawn)"
  QUALITATIVE LABEL: "f"
- MOLECULE: "CC(C)(CCCCC(C)(C)C1NC(=O)N1)C1NC(=O)N1"
  QUALITATIVE LABEL: "f"
- MOLECULE: "Nc1nc(SCC(=O)c2ccccc2)c2[nH]cnc2n1"
  QUALITATIVE LABEL: "f"
- MOLECULE: "Cn1c(=O)c2c(nc3sc4ncccc4c(=O)n32)n(C)c1=O"
  QUALITATIVE LABEL: "f"
- MOLECULE: "C/C(=N\\NS(=O)(=O)c1ccc(C)cc1)C(CN1CCCCC1)C(c1ccccc1)c1c(O)c2ccccc2oc1=O (stereo not drawn)"
  QUALITATIVE LABEL: "f"
- MOLECULE: "COc1cc2cc(C(=O)N3CC(CCl)c4ccc([N+](=O)[O-])cc43)[nH]c2c(OC)c1OC (stereo not drawn)"
  QUALITATIVE LABEL: "f"
- MOLECULE: "N#Cc1nc(/C=C/c2cccnc2)oc1N"
  QUALITATIVE LABEL: "f"
- MOLECULE: "CC(=O)Oc1ccc(C2COc3cc(OC(C)=O)c(OC(C)=O)cc3C2)cc1 (stereo not drawn)"
  QUALITATIVE LABEL: "f"
- MOLECULE: "Cn1cc(-c2n[nH]c(-c3ccc(Cl)cc3)nc2=O)c2ccccc21"
  QUALITATIVE LABEL: "f"
- MOLECULE: "Cn1nc(-c2ccccc2)c2c(-c3ccccc3)c3cc(Cl)ccc3nc21"
  QUALITATIVE LABEL: "f"
- MOLECULE: "Cn1c([N+](=O)[O-])cnc1CN1CCN(CCO)CC1"
  QUALITATIVE LABEL: "f"
- MOLECULE: "COC(=O)C1=C(C(=O)OC)C2(CCCCCC2=O)OC1=O (stereo not drawn)"
  QUALITATIVE LABEL: "f"
- MOLECULE: "COc1ccc(C(=O)C=C2NCCN2)cc1"
  QUALITATIVE LABEL: "f"
